System: RARg:RXRa (NR concentration 270 nM, RXRa partner concentration 90 nM)
Test: PBM binding z-score (relative to random genomic background probes); higher = stronger binding; sequences stand for … in GC…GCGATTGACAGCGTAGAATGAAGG
measured-quantity: PBM binding z-score
Please respond with just the number, no unit label.

Entry `CCTGCTAGGTCATGGTCGGCTAATCTACAGTATG` : reported PBM binding z-score = ?
3.92

Similarly, `AGAATGCGGTTATACGTAGATCAGGGAAGAAAGT` ?
0.0152

Repeat for the following sequence: `CGTCCAAGGTCCAGGTCAGTGAAAGAGACTCGAA`
1.4

Then this sequence: `ACTCAAAGTTCATCTAGGTAACGTAAGATATGCT`
5.51

Cool, now `ACTCGGAGGACACAGGTCAGAGCTACGCCAGTGA`
2.68

Queued: `TCATATAGGTAAATGGTGAAAGTCGGTGTGGTAA`
0.0436

Now try `AATACAGGGTCATCGTAGGCCAGATTACGCACAG` .
5.85

Here is the next sequence: `ACTAGTTGGTCAGCTGTGGTCACACACAATTCGG`
0.489

Next: `CCCGACAGGTGAGAAGGTAACTCAGCCTCGATTA`
0.562

Item: `CGTCCAAGGTGAATGCTAGGTCAGTGAAAGCATT`
3.71

Note, next up: `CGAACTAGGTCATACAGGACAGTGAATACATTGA`
3.77

Let us now turn to `AGAACGAGGGCAATGAGTTGATCGCACGGGTGGC`
0.967

---

Answer each item with its documented PBM binding z-score.
System: RARa:RXR (NR concentration 270 nM, RXRa partner concentration 90 nM)
Experiment: PBM binding z-score (relative to random genomic background probes); higher = stronger binding; sequences stand for … in GC…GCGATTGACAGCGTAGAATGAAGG
Returns: the value as a bare number; no unit string appended.

Given `TCGAGTAGGTTAGGGGCACTCAGAATGGCGTCGA` , state its recorded PBM binding z-score.
0.491

Likewise for `GGAACGAGGGCATTCGAGTTGATAGCTTGGCGAT` ?
0.494

Try this sequence too: `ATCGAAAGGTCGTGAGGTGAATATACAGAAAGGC`
4.96

What about this sequence? `GCTTCTAGATCAAGGTTAAGAAAGACTAAGCTAA`
0.885

Next: `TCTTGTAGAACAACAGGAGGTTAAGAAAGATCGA`
0.961

For `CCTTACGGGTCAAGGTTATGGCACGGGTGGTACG` then?
4.13

Now the same for `TGAATGAGGTAAAAGATCAGGGAACGTGGCGTCG`
0.545

Continue with `AGAATGAGGTTATACGTAGATCAAGGAAGAAAGT`
1.97

How about this sequence: `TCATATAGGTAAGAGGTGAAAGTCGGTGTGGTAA`
2

Continue with `CCTAGTTGGTGAGGAGGTCACACACCGGATATGA`
4.11

Same again, this time with `ACGGACAGGTGATGAAGGTAACTCAGGCTATCAT`
0.174

And for `ATATGTAGGTTAAGGTTCATTCAGGTTGGTTCGC` ?
3.48

---

Tested on: LXRb homodimer (NR concentration 270 nM)
Experiment: PBM binding z-score (relative to random genomic background probes); higher = stronger binding; sequences stand for … in GC…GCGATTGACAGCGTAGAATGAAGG
Would you mind telling me the reported PBM binding z-score of each entry?
Enter a number only.

Dear colleague, I am looking for the recorded PBM binding z-score of the following sequence: `AATACAGGGACACTAGGCCAGAGTAGGTACGAAT`
-0.0261

Again, but for `CGAACTAGGTCATTGAGAGGACAGTGAATAGTAA`
-0.333

Proceed to `ATTATTAGTTGAGACGAGGGCAACCGATAGGTTG`
0.941

Another sequence to check: `TTACCAAGGTGAGCTGAGGTCGATGATCCAACTC`
-1.26

// next record `AATACAGGGTCATCGTAGGCCAGAGTTCGCACAG`
1.44

Now consider `AGAATGAGGTTATTCGTAGATCAGGGAAGAAAGT` .
-0.0255

Please do the same for `CCTATTAGTTGACCAAAAGGGCAACCGAAGCTCG` as well.
0.763

Now give it for `AATACAGGGTCACTAGGCAAGAGTAGGTACGAAT` too.
1.1

Another sequence: `GCGACTGGGGCAAAGCAGGTTACCATTAGGTTGG`
-0.906

Subsequent entry: `ATCGGAAGGTCGACGAGGTGAGTATACACCGTTT`
-0.58

Further, for `CCTGCTAGGTGATGGTCAGCTAATCTACAGTATG` ?
-0.584

Similarly, `CCTAGAAGGCCAATCTGGGTCACTCAAGGCTTGA` ?
-0.793

---

Tested on: RARg homodimer (NR concentration 270 nM)
Experiment: PBM binding z-score (relative to random genomic background probes); higher = stronger binding; sequences stand for … in GC…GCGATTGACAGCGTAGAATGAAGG
# PBM binding z-score >= 2 gives Yes, anything below gives No

Is PBM binding z-score for `TCTGCTAGCTCAACGATGGTCAGCTAATCTGCTA` at or above 2?
No

And `CCTTACGGGTCACTGGCAGGTTATAGCATTTGGA` ?
Yes

Next record, please: `ATTTGTAGGTTAAGGGTCATTCAGGTTGGTTCGC`
Yes

Here is the next sequence: `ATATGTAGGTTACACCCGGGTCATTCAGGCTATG`
Yes

Now try `GCTAGCAGGCCATTTGGGTCACGCAATGACGGGC` .
No

Field entry: `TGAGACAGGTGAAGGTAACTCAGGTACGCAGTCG`
No

Again, but for `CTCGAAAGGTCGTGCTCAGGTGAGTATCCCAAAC`
Yes

Here is the next sequence: `TCATATAGGTAAAGGTAAAAGTCGAACGATATGA`
No

What about this sequence? `TCGAGTAGGTTAGTCAGGGCATTCAGCCAACATA`
No

Could you do the same for `TAGCCTAGGTCATTGAGGGGCCAGTATAGAAAGC` , please?
Yes

What do you have for `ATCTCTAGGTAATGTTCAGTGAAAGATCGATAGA` ?
No

One more sequence: `TGTGCTAGGTCAGTTGGTCAGCTAACGAGCTGCC`
Yes

Another sequence to check: `TCTTGTAGATCAAGCAAGTTAAGAAAGCCTGAGT`
No

Continue with `TGTCAAAGATCAAAGGTAACGTAAGTATCCACAC`
No

Next record, please: `GCTATTAGTTGAAAGGGCAACGGAATGATTCTCG`
No

And for `CGTCAAAGTTCAACTAAGGTAACATAAAGCACGC` ?
Yes

Also need `CCTACTGGGCCATCAGGTCACTGATATCAACGTT` , thanks.
Yes

Ok, now `CGAACTAGGTCAGAACAGGACAGTGACGGATGAT`
Yes

Also, `AGAATGAGGTTATACGTAGATTAGGGAAGAAAGT` please.
No

`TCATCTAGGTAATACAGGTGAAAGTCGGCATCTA` ?
No

And `TCTTGTAGATCAATAGGAGGTTAAGAAAGATCGA` ?
No

// query: `TCGAGTAGGTTACCAATGCGGCATTCAGCTTTCT`
No

Next entry: `AATACAGGGTCATCGTAGGCCAGACTACGCACAG`
Yes

Thanks! And `AGAATGAGGTTACCAAAGATCAGGTAAACGCTTG` ?
No

Try this sequence next: `AGATGTAGGTTAGCTGGGGTCATTCAGACTAGGC`
Yes

Also `TGAAGGAGGTTATAAGATCAGGGAACGTTGCAAA` ?
No

---

Tested on: PPARg homodimer (NR concentration 180 nM)
Test: PBM binding z-score (relative to random genomic background probes); higher = stronger binding; sequences stand for … in GC…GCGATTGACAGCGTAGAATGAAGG
measured-quantity: PBM binding z-score
Write the number on its own, no unit after it.

Which PBM binding z-score reading was recorded for the sequence `CCTAATAGTTGACCATAAGGGCAACCGAAGCTCG` ?
1.09

What do you have for `CAGCCTAGGTCAGGGCAAGTATAGGAGGAACGTT` ?
0.755

Another sequence: `ATCTCTAGGTAACACTCAGTTCAGTGAAGAACGC`
1.13

Another sequence to check: `TCTATTTGTTGATTAGGGCAACCGAAACAGCGGA`
1.59

Similarly, `CAAACTAGGCCAAGAGGTCAAAGTCCGCTTCCCG` ?
2.87

Next sequence up: `CCTCGGAGGACAGAAGGTCATAGCTGTCCGCTTT`
2.13

What do you get for `CCTCGGAGGACAACAGGACGTCAGAGCTGCCAGA` ?
-0.0308

Field entry: `CTCGGAAGGTCGGTTGAGGTGAGTATACGGATAA`
0.527

Param item: `CCTACTGGGCCAAAGGTCATTGCTTCCAATGCTC`
2.84

What about this sequence? `CCTGCTAGGTCATGGTCAGCTAATCTACAGTATG`
0.79

# iterate: `AGAATGAGCTTACCAAAGATCAGGGAAACGCTTG`
-0.572

Let us now turn to `ACTAGCAGGCCAAGTTTGGGTCACTAAAACAAAG`
0.00653

Here is the next sequence: `TAGCCTAGGTCGTGGGCCAGTATACCACGCGAAC`
-0.437

How about this sequence: `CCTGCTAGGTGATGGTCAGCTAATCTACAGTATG`
-0.218

And `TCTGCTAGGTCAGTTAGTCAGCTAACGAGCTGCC` ?
-0.199

Further, for `CCTACTGGGCCAAAAGGGTCATTGATGCCGATAA` ?
2.18

How about this sequence: `CCTAGTTAGTCAAGGTCACACACGCTATAGGTAC`
3.64

Try this sequence too: `ATACCAAGGTGATGGTGAGGTCGTTGATACTAAC`
1.2

Request: `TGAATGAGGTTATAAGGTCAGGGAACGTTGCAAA`
2.82

Proceed to `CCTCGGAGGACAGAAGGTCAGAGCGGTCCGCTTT`
1.2

Similarly, `TGGCAAAGTTCAAAGGTAACGTAAGTATCCACAC` ?
3.45

Another sequence: `AATACAGGGTCATCGTAGGCCAAAGTACGCACAG`
3.47

What do you have for `CAAACTAGGTCACGAAAGGTCAGAGTCGAATGAC` ?
7.35

Item: `CATACAGAGTCAGCTAGGCCAGAGTAGGGACGGC`
-0.174

Another sequence to check: `ATATGTAGGTTACCTCCGGGTCATTCAGGCTATG`
1.74

Entry to check: `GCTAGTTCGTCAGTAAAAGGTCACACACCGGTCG`
5.83
